Entries and their % inhibition values follow.
tested on: human PKK mRNA; assay: Antisense inhibition of human PKK mRNA in HepaRG cells, 1,000 nM, MOE/deoxy/cEt oligonucleotides (Example 3); type: cell-based; settings: HepaRG cells, electroporation with 1,000 nM antisense oligonucleotide, approx. 24 hours, PKK mRNA by RT-PCR (RTS3454), relative to untreated control cells; Table 25 experiment
Strand notation (5' to 3'): a small letter for the sugar, then the base; units joined by * are phosphorothioate-linked, units joined directly phosphodiester-linked; [ ] holds rarer units or linkages, { } end groups; capitals alone tell only the bases. e = 2'-O-(2-methoxyethyl) (MOE); k = constrained ethyl (cEt); [5mC] = 5-methylcytosine; d = 2'-deoxy (DNA)
API: value field is a number in %; no unit string.

substance: 547747 (eT*e[5mC]*kA*d[5mC]*dT*dG*dT*dA*d[5mC]*dT*dA*dG*dT*kT*kT*e[5mC]) [compound 547747]
quantityMeasured: % inhibition
measValue: 66
//
substance: 548194 (eG*e[5mC]*k[5mC]*dA*dA*d[5mC]*dA*dG*dT*dT*dT*d[5mC]*dA*kA*k[5mC]*eT; antisense) [compound 548194]
quantityMeasured: % inhibition
measValue: 61
//
substance: 548209 (e[5mC]*eA*kA*dT*d[5mC]*dT*d[5mC]*dT*dG*dG*dT*d[5mC]*dA*kA*kT*e[5mC]; antisense) [compound 548209]
quantityMeasured: % inhibition
measValue: 57
//
substance: 548182 (eA*eG*kT*d[5mC]*dA*dT*dG*dG*dA*dG*dA*dT*d[5mC]*kT*k[5mC]*eA; antisense) [compound 548182]
quantityMeasured: % inhibition
measValue: 55
//
substance: 548177 (eA*eG*kA*dT*d[5mC]*dT*d[5mC]*dA*dG*dT*dT*dG*d[5mC]*kG*kA*e[5mC]; antisense) [compound 548177]
quantityMeasured: % inhibition
measValue: 45

Entry 548200 (e[5mC]*eT*kA*dA*dT*dG*dT*dG*dG*d[5mC]*dA*d[5mC]*dT*kG*k[5mC]*eA; antisense) [compound 548200] : reported % inhibition = ? 19

Entry 548199 (eG*e[5mC]*kA*d[5mC]*dT*dG*d[5mC]*dA*dG*dG*d[5mC]*dA*dA*kT*kA*eT; antisense) [compound 548199] : reported % inhibition = ? 24

Entry 548222 (eA*eA*kT*d[5mC]*dA*dT*dG*d[5mC]*d[5mC]*dT*dT*dG*dT*kG*kG*eG; antisense) [compound 548222] : reported % inhibition = ? 32

###

system: human PKK mRNA; test: Dose-dependent antisense inhibition of human PKK in HepaRG cells, 0.19-5.00 uM (Example 5); assay type: cell-based; conditions: HepaRG cells, 0.19 μM antisense oligonucleotide
Strand notation (5' to 3'): a small letter for the sugar, then the base; units joined by * are phosphorothioate-linked, units joined directly phosphodiester-linked; [ ] holds rarer units or linkages, { } end groups; capitals alone tell only the bases. e = 2'-O-(2-methoxyethyl) (MOE); [5mC] = 5-methylcytosine; d = 2'-deoxy (DNA)
Entries and their percent inhibition of PKK mRNA, 0.19 μM values follow.
API: value field is a number in %; no unit string.

// known answers, use as guide
substance: 547294 (antisense e[5mC]*eT*e[5mC]*eA*eT*d[5mC]*dT*dG*dG*d[5mC]*dA*dG*dT*dA*dT*eT*eG*eG*eG*e[5mC]) [compound 547294]
percent inhibition of PKK mRNA, 0.19 μM, %: 4
//
substance: 548770 (antisense eT*eA*eA*e[5mC]*dA*dG*dT*dA*dT*d[5mC]*dA*d[5mC]*dT*eG*eT*e[5mC]*e[5mC]) [compound 548770]
percent inhibition of PKK mRNA, 0.19 μM, %: 9
//
substance: 546753 (e[5mC]*eT*eG*eG*e[5mC]*dT*d[5mC]*dA*d[5mC]*dT*dA*dT*dA*dG*dG*e[5mC]*e[5mC]*e[5mC]*e[5mC]*eA; antisense) [compound 546753]
percent inhibition of PKK mRNA, 0.19 μM, %: 17
//
substance: 547293 (antisense e[5mC]*eA*eT*e[5mC]*eT*dG*dG*d[5mC]*dA*dG*dT*dA*dT*dT*dG*eG*eG*e[5mC]*eA*eT) [compound 547293]
percent inhibition of PKK mRNA, 0.19 μM, %: 0
//
substance: 547617 (antisense e[5mC]*eT*eG*eT*e[5mC]*d[5mC]*dT*dA*dT*dA*dT*d[5mC]*dA*d[5mC]*dT*eG*eT*eA*e[5mC]*e[5mC]) [compound 547617]
percent inhibition of PKK mRNA, 0.19 μM, %: 17
//
substance: 546986 (e[5mC]*eA*eG*eG*eA*dT*dA*dG*dA*dA*d[5mC]*dT*dG*dA*dT*eG*eG*eT*e[5mC]*e[5mC]; antisense) [compound 546986]
percent inhibition of PKK mRNA, 0.19 μM, %: 7
//
substance: 546897 (eA*eG*eT*eA*eT*d[5mC]*dA*d[5mC]*dT*dG*dT*d[5mC]*d[5mC]*dT*dA*eT*eG*eT*e[5mC]*eA; antisense) [compound 546897]
percent inhibition of PKK mRNA, 0.19 μM, %: 16
//
substance: 547632 (antisense eT*e[5mC]*eA*e[5mC]*eT*dG*dT*d[5mC]*d[5mC]*dT*dA*dT*dA*dT*d[5mC]*eA*e[5mC]*eT*e[5mC]*eT) [compound 547632]
percent inhibition of PKK mRNA, 0.19 μM, %: 0
//
substance: 546889 (eG*eT*e[5mC]*e[5mC]*eT*dA*dT*dG*dT*d[5mC]*dA*d[5mC]*dT*dG*dT*eA*e[5mC]*e[5mC]*eT*eA; antisense) [compound 546889]
percent inhibition of PKK mRNA, 0.19 μM, %: 25

From here, focus on the item given below.
Entry 546870 (e[5mC]*eT*eG*eT*eA*d[5mC]*d[5mC]*dT*dA*dT*dA*dA*d[5mC]*dT*d[5mC]*eT*eA*eA*e[5mC]*eA; antisense) [compound 546870] : reported percent inhibition of PKK mRNA, 0.19 μM = ? 36

###

system: human PKK mRNA; experiment: Antisense inhibition of human PKK mRNA in HepaRG cells, 3,000 nM (Example 1); assay type: cell-based; conditions: Table 3; HepaRG cells, electroporation with 3,000 nM antisense oligonucleotide, approx. 24 hours; PKK mRNA by RT-PCR (RTS3454), relative to untreated control cells
Strand notation (5' to 3'): a small letter for the sugar, then the base; units joined by * are phosphorothioate-linked, units joined directly phosphodiester-linked; [ ] holds rarer units or linkages, { } end groups; capitals alone tell only the bases. e = 2'-O-(2-methoxyethyl) (MOE); [5mC] = 5-methylcytosine; d = 2'-deoxy (DNA)
quantityMeasured: % inhibition (%)
API: value field is a number in %; no unit string.

// known answers, use as guide
substance: 531110 (antisense eG*e[5mC]*e[5mC]*eT*eG*dT*dT*dT*dG*dG*dT*dG*dG*dT*d[5mC]*eT*e[5mC]*eT*eT*e[5mC]) [compound 531110]
targetOrTestSystem: human PKK mRNA
quantityMeasured: % inhibition
readoutUnits: %
measValue: 86
--
substance: 531114 (antisense eA*eG*eA*eG*eT*d[5mC]*dA*dA*dG*dT*d[5mC]*d[5mC]*dA*d[5mC]*dA*eG*eA*e[5mC]*eA*eT) [compound 531114]
targetOrTestSystem: human PKK mRNA
quantityMeasured: % inhibition
readoutUnits: %
measValue: 40

From here, focus on the item given below.
Entry 531139 (antisense eT*e[5mC]*eA*e[5mC]*eT*dA*dA*dA*dA*d[5mC]*dA*dA*dA*dA*dA*eT*eA*e[5mC]*eT*eT) [compound 531139] : reported % inhibition = ? 0

###

test system: human PKK mRNA; assay: Antisense inhibition of human PKK mRNA in HepaRG cells, 1,000 nM, MOE/deoxy/cEt oligonucleotides (Example 3); assay type: cell-based; settings: HepaRG cells, electroporation with 1,000 nM antisense oligonucleotide, approximately 24 hours, primer probe set RTS3454, relative to untreated control cells; experiment of Table 23
Strand notation (5' to 3'): a small letter for the sugar, then the base; units joined by * are phosphorothioate-linked, units joined directly phosphodiester-linked; [ ] holds rarer units or linkages, { } end groups; capitals alone tell only the bases. e = 2'-O-(2-methoxyethyl) (MOE); k = constrained ethyl (cEt); [5mC] = 5-methylcytosine; d = 2'-deoxy (DNA)
Label MET when % inhibition is at or above 40%; otherwise label NOT MET.

Reference set (3 entries):
substance: 547966 (antisense eA*eG*kG*dG*dT*dT*d[5mC]*dA*dG*dG*dT*dA*dA*kA*kG*eT) [compound 547966]
classification: NOT MET
--
substance: 547941 (eG*eT*kG*dT*dG*d[5mC]*d[5mC]*dA*d[5mC]*dT*dT*dT*d[5mC]*kA*kG*eA; antisense) [compound 547941]
classification: MET
--
substance: 547982 (antisense eA*eA*kT*d[5mC]*dA*dT*d[5mC]*dT*dT*dT*dG*dT*dG*k[5mC]*kA*eA) [compound 547982]
classification: MET

API: above_or_equal(metric=% inhibition, cutoff=40%) for item 547978 (antisense e[5mC]*eT*kT*dG*dG*d[5mC]*dA*dA*dA*d[5mC]*dA*dT*dT*k[5mC]*kA*e[5mC]) [compound 547978] MET

API: above_or_equal(metric=% inhibition, cutoff=40%) for item 547994 (antisense e[5mC]*e[5mC]*kA*dT*d[5mC]*d[5mC]*dA*dT*dA*dG*dA*dT*dA*kA*kT*e[5mC]) [compound 547994] MET

API: above_or_equal(metric=% inhibition, cutoff=40%) for item 547956 (eG*eT*kT*dA*dA*dA*dA*dG*dG*d[5mC]*dT*dA*dT*kA*kT*e[5mC]; antisense) [compound 547956] NOT MET

API: above_or_equal(metric=% inhibition, cutoff=40%) for item 547920 (eG*eA*kG*dA*dA*d[5mC]*d[5mC]*d[5mC]*dT*dG*dG*d[5mC]*dA*kA*k[5mC]*eA; antisense) [compound 547920] MET

Reference source for all entries: patent US11840686B2
